These compounds were tested on Acetylcholinesterase (Electrophorus electricus); IC50 is the recorded read-out.
Sequence (O42275 whole entry): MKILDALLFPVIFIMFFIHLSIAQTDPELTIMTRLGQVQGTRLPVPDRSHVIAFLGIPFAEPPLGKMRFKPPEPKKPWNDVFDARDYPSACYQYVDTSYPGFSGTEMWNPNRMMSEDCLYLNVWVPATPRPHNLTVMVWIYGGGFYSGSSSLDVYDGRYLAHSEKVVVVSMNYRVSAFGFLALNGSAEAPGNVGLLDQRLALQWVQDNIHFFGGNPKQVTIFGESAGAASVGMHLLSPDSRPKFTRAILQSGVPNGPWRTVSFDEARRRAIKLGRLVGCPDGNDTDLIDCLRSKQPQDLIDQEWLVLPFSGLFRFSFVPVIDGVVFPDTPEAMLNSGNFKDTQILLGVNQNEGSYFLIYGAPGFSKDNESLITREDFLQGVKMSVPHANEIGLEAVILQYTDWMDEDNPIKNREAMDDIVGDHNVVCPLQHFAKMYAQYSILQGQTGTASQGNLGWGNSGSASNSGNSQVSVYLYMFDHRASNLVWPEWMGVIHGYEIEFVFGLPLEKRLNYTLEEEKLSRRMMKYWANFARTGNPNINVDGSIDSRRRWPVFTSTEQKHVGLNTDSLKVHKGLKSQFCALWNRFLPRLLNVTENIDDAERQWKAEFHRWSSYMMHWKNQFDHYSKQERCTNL
Numbers only here, please. The scale is µM.

// worked examples, IC50 included
# Compound String, Result Value
measured = [
    ("O=c1c2ccccc2n(CCCCCCn2cc(CO[C@@H]3O[C@H](CO)[C@@H](O)[C@H]3O)nn2)c2ccccc12", 143),
    ("O=c1c2ccccc2n(CCCCCCn2cc(CO[C@H]3C[C@H](O)[C@@H](CO)O3)nn2)c2ccccc12", 167),
    ("COc1ccc2c(c1)c(=O)c1ccccc1n2CCCCCCn1cc(CO[C@@H]2O[C@H](CO)[C@@H](O)[C@H](O)[C@H]2O)nn1", 56.1),
    ("O=c1c2ccccc2n(CCCCCCn2cc(CO[C@@H]3O[C@H](CO)[C@@H](O)[C@H](O)[C@H]3O)nn2)c2ccccc12", 38.2),
    ("COc1ccc2c(c1)c(=O)c1ccccc1n2CCCCCCn1cc(CO[C@@H]2O[C@H](CO)[C@H](O)[C@H](O)[C@H]2O)nn1", 44.7),
]

With Acetylcholinesterase (Electrophorus electricus) as the test system, "COc1ccc2c(c1)c(=O)c1ccccc1n2CCCCCCn1cc(CO[C@H]2C[C@H](O)[C@@H](CO)O2)nn1" showed IC50 of 85.1

With Acetylcholinesterase (Electrophorus electricus) as the test system, "O=c1c2ccccc2n(CCCCCCn2cc(CO[C@@H]3O[C@H](CO)[C@H](O)[C@H](O)[C@H]3O)nn2)c2ccccc12" showed IC50 of 44.7

With Acetylcholinesterase (Electrophorus electricus) as the test system, "COc1ccc2c(c1)c(=O)c1ccccc1n2CCCCCCn1cc(CO[C@@H]2O[C@H](CO)[C@@H](O)[C@H]2O)nn1" showed IC50 of 81.8

* * *

Molecular target: UniProtKB P06276
Sequence (P06276 whole entry): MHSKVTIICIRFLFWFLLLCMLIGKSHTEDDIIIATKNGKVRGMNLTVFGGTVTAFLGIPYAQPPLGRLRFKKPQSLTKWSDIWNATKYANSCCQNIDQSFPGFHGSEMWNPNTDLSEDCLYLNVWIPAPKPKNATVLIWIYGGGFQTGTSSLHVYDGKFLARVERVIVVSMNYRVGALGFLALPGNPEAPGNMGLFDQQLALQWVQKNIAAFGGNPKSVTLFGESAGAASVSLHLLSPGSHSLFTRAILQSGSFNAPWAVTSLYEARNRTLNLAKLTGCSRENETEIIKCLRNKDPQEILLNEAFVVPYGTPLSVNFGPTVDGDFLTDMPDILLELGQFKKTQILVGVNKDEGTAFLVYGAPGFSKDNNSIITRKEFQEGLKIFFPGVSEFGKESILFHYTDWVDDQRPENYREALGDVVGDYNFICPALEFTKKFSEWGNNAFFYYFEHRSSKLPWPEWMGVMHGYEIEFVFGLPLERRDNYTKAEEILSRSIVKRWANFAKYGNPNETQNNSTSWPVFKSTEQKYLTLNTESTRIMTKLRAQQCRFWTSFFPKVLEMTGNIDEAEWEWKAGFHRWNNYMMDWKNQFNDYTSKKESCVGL
Test: Binding affinity to BuChE (unknown origin) assessed as inhibition constant incubated for 20 mins by absorbance based analysis
Assay Endpoint: Ki (µM)
Numbers only here, please. The scale is µM.

Note to self: Ki recorded for CCCCCCCCO[C@H]1[C@H](OC(C)=O)[C@@H](Cn2c(=O)c3c(ncn3C)n(C)c2=O)OC(OC(C)=O)[C@@H]1OC(C)=O (stereo partly specified) was 5.4

* * *

Target: Cholinesterase (Mus musculus)
Sequence (Q03311 whole entry): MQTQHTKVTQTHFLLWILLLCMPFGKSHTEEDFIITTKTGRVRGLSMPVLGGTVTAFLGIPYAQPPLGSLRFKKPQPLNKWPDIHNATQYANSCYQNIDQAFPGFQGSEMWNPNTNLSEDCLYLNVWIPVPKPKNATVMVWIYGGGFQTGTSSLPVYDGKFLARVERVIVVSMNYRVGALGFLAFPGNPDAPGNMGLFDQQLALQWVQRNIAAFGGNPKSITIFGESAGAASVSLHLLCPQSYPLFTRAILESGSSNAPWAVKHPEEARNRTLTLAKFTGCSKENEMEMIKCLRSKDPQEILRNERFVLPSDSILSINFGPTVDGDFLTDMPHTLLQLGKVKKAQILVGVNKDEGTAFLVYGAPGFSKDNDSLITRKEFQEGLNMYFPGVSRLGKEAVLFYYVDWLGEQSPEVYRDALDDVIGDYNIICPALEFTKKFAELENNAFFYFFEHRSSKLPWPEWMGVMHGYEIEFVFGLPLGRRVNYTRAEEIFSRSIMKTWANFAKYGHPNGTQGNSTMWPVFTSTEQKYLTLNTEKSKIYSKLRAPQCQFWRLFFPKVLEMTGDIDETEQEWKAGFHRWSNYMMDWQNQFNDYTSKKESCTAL
Assay: Inhibition of mouse serum BuChE
Assay Endpoint: log10 of IC50 (log10 of the value in nM)
Parameter value (number): base-10 log of IC50 in nM.

// worked examples, log10 of IC50 included
# Compound String, Target, Assay Endpoint, Result Value
data = [
    ("CC1(C)O[C@H]2O[C@H](CNCCCCCCCCCCNc3c4c(nc5ccccc35)CCCC4)[C@H](O)[C@H]2O1", "Cholinesterase (Mus musculus)", "log10 of IC50", 1.49),
    ("CC1(C)O[C@H]2[C@@H](O1)[C@@H](CNCCCCCCCCCCNc1c3c(nc4ccccc14)CCCC3)O[C@@H]1OC(C)(C)O[C@@H]12", "Cholinesterase (Mus musculus)", "log10 of IC50", 1.41),
    ("CO[C@@H]1O[C@H](CNCCCCCCCCCCNc2c3c(nc4ccccc24)CCCC3)[C@H]2OC(C)(C)O[C@@H]12", "Cholinesterase (Mus musculus)", "log10 of IC50", 1.81),
    ("CC1(C)O[C@H]2O[C@H](CNCCCCCCCCCCCNc3c4c(nc5ccccc35)CCCC4)[C@H](O)[C@H]2O1", "Cholinesterase (Mus musculus)", "log10 of IC50", 0.69),
    ("CO[C@@H]1O[C@H](CNCCCCCCCCCNc2c3c(nc4ccccc24)CCCC3)[C@H]2OC(C)(C)O[C@@H]12", "Cholinesterase (Mus musculus)", "log10 of IC50", 1.57),
]

Note to self: log10 of IC50 recorded for "CC1(C)O[C@H]2O[C@H](NCCCCCCCNc3c4c(nc5ccccc35)CCCC4)[C@H](O)[C@H]2O1" was 1.43

Note to self: log10 of IC50 recorded for "CC1(C)O[C@H]2O[C@H](CNCCCCCCCCNc3c4c(nc5ccccc35)CCCC4)[C@H](O)[C@H]2O1" was 1.04

Note to self: log10 of IC50 recorded for "CC1(C)O[C@H]2O[C@H](CNCCCCCCCCCNc3c4c(nc5ccccc35)CCCC4)[C@H](O)[C@H]2O1" was 1.40

Note to self: log10 of IC50 recorded for "CC1(C)O[C@H]2[C@@H](O1)[C@@H](CNCCCCCCCCCNc1c3c(nc4ccccc14)CCCC3)O[C@@H]1OC(C)(C)O[C@@H]12" was 1.57

* * *

Target: Acetylcholinesterase (Mus musculus, UniProt P21836)
Sequence (P21836 whole entry): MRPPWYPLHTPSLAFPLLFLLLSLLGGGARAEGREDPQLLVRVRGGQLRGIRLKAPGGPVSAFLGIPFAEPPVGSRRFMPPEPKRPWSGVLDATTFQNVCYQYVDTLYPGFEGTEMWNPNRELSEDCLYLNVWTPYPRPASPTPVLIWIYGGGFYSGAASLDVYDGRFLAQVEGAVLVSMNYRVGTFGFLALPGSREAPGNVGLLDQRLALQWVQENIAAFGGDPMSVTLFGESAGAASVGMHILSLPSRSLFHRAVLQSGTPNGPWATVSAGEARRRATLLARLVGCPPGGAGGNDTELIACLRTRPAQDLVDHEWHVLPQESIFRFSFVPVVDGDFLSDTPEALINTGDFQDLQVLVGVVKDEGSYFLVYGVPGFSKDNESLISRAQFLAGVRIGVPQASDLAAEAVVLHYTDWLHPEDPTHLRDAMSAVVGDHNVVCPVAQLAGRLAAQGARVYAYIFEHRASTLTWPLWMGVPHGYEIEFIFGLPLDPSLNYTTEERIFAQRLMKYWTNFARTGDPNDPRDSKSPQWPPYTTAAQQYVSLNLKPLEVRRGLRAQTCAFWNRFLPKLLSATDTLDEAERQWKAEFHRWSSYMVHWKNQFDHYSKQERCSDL
Entries get a class label from measured IC50. See ranges: bottom: < 5 nM; middle: ≥ 5 nM and < 60 nM; top: ≥ 60 nM

# Compound String, Qualitative Label
measured = [
    ("CO[C@@H]1O[C@H](CNCCCCCCCCCNc2c3c(nc4ccccc24)CCCC3)[C@H]2OC(C)(C)O[C@@H]12", "top"),
]

input: Category of "CC1(C)O[C@H]2O[C@H](NCCCCCCCNc3c4c(nc5ccccc35)CCCC4)[C@H](O)[C@H]2O1" :
output: middle

input: Category of "CC1(C)O[C@H]2[C@@H](O1)[C@@H](CNCCCCCCCCCCNc1c3c(nc4ccccc14)CCCC3)O[C@@H]1OC(C)(C)O[C@@H]12" :
output: middle

input: Category of "CC1(C)O[C@H]2[C@@H](O1)[C@@H](CNCCCCCCCCCNc1c3c(nc4ccccc14)CCCC3)O[C@@H]1OC(C)(C)O[C@@H]12" :
output: bottom

input: Category of "CC1(C)O[C@H]2O[C@H](CNCCCCCCCCCCNc3c4c(nc5ccccc35)CCCC4)[C@H](O)[C@H]2O1" :
output: middle

input: Category of "CO[C@@H]1O[C@H](CNCCCCCCCCCCNc2c3c(nc4ccccc24)CCCC3)[C@H]2OC(C)(C)O[C@@H]12" :
output: top

input: Category of "CC1(C)O[C@H]2O[C@H](CNCCCCCCCCNc3c4c(nc5ccccc35)CCCC4)[C@H](O)[C@H]2O1" :
output: top

input: Category of "CC1(C)O[C@H]2O[C@H](CNCCCCCCCCCCCNc3c4c(nc5ccccc35)CCCC4)[C@H](O)[C@H]2O1" :
output: bottom

* * *

Collected pIC50 values appear next to each entry.
Target: UniProt:P22303
Sequence (P22303 whole entry): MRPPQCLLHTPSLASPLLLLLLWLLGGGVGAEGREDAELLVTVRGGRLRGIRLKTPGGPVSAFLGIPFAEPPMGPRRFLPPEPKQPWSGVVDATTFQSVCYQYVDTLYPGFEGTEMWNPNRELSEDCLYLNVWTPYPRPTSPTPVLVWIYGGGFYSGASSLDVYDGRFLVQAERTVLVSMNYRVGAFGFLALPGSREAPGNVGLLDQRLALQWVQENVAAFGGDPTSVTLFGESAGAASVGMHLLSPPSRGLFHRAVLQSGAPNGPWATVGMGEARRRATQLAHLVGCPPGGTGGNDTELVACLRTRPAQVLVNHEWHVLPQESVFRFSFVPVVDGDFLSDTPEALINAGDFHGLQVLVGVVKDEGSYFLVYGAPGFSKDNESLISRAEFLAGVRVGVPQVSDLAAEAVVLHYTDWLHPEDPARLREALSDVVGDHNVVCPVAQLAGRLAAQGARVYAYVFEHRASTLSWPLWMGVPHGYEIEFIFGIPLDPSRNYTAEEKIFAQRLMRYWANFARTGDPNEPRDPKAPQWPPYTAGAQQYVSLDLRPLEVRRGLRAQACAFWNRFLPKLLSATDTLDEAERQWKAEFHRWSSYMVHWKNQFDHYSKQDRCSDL
# reply with the number alone; pIC50 is -log10 of concentration in mol/L

// worked examples, pIC50 included
# Molecule, Target, pIC50
measured = [
    ("CC1=C(CO[C@@H]2O[C@H](CO[C@@H]3O[C@H](CO)[C@@H](O)[C@H](O)[C@H]3O)[C@@H](O)[C@H](O)[C@H]2O)C(C)(C)CCC1", "UniProt:P22303", 5.49),
    ("COc1cc([C@@H](O)[C@H](CO[C@@H]2O[C@H](CO)[C@@H](O)[C@H](O)[C@H]2O)Oc2ccc(CCCO)cc2OC)ccc1O", "UniProt:P22303", 6.12),
]

Continue with the molecule presented below.
With UniProt:P22303 as the test system, COc1cc(CO)ccc1O[C@@H]1O[C@H](CO)[C@@H](O)[C@H](O)[C@H]1O [VANILLOLOSIDE] showed pIC50 of 5.34

* * *

These compounds were tested on Cholinesterase (Equus caballus); pIC50 is the recorded read-out.
Sequence (P81908 whole entry): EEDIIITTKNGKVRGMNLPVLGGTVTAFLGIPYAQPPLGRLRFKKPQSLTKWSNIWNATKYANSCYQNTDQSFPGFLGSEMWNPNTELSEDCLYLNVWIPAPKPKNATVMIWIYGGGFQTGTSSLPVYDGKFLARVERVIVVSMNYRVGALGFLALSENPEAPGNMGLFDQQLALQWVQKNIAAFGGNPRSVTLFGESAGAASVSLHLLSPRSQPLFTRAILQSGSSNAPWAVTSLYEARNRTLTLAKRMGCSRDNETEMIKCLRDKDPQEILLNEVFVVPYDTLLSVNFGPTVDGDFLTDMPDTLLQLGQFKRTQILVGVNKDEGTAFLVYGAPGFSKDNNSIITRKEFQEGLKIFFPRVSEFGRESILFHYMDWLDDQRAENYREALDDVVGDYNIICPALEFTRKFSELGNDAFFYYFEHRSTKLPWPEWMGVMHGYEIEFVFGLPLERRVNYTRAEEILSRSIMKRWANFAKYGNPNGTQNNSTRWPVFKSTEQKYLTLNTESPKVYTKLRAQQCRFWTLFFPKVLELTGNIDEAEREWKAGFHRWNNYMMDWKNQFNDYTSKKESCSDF
# reply with the number alone; pIC50 is -log10 of concentration in mol/L

// worked examples, pIC50 included
# Compound String, Target, pIC50
data = [
    ("COc1ccc2c(c1)c(=O)c1ccccc1n2CCCCCCn1cc(CO[C@@H]2O[C@H](CO)[C@@H](O)[C@H]2O)nn1", "Cholinesterase (Equus caballus)", 4.46),
    ("COc1ccc2c(c1)c(=O)c1ccccc1n2CCCCCCn1cc(CO[C@@H]2O[C@H](CO)[C@H](O)[C@H](O)[C@H]2O)nn1", "Cholinesterase (Equus caballus)", 4.18),
    ("COc1ccc2c(c1)c(=O)c1ccccc1n2CCCCCCn1cc(CO[C@@H]2O[C@H](CO)[C@@H](O)[C@H](O)[C@H]2O)nn1", "Cholinesterase (Equus caballus)", 4.08),
]

With Cholinesterase (Equus caballus) as the test system, "COc1ccc2c(c1)c(=O)c1ccccc1n2CCCCCCn1cc(CO[C@H]2C[C@H](O)[C@@H](CO)O2)nn1" showed pIC50 of 4.45

With Cholinesterase (Equus caballus) as the test system, "O=c1c2ccccc2n(CCCCCCn2cc(CO[C@H]3C[C@H](O)[C@@H](CO)O3)nn2)c2ccccc12" showed pIC50 of 4.37

With Cholinesterase (Equus caballus) as the test system, "O=c1c2ccccc2n(CCCCCCn2cc(CO[C@@H]3O[C@H](CO)[C@@H](O)[C@H](O)[C@H]3O)nn2)c2ccccc12" showed pIC50 of 4.53

With Cholinesterase (Equus caballus) as the test system, "O=c1c2ccccc2n(CCCCCCn2cc(CO[C@@H]3O[C@H](CO)[C@@H](O)[C@H]3O)nn2)c2ccccc12" showed pIC50 of 5.16

With Cholinesterase (Equus caballus) as the test system, "O=c1c2ccccc2n(CCCCCCn2cc(CO[C@@H]3O[C@H](CO)[C@H](O)[C@H](O)[C@H]3O)nn2)c2ccccc12" showed pIC50 of 4.42
